target: human GLP-1R receptor (Homo sapiens); construct: expressed in transfected cells; experiment: GLP-1R low expression cell assay (cAMP TR-FRET, CHO-K1_hGLP-1Rlow_clone10 cells); type: cell-based; conditions: maximum activation relative to control GLP-1 peptide agonist
Emax values for the compounds below.
testReadout: Emax

Cn1c(CN2CCC(c3cccc4c3O[C@@H](c3ccc(Cl)cc3F)CO4)CC2)nc2c(OC(F)F)cc(C(=O)O)cc21 = > 85%
[2H]C([2H])(C)Oc1cc(C(=O)O)cc2c1nc(CN1CCC(c3cccc(OCc4ccc(C#N)cc4F)n3)CC1)n2C = > 85%
CN(c1nc2c(OC(F)F)cc(C(=O)O)cc2n1C[C@@H]1CCO1)[C@H]1CC[C@@H](c2cccc(OCc3ccc(C#N)cc3F)n2)CC1 = > 85%
Cn1c(CN2CCC(c3cccc(COc4ccc(Cl)cc4F)n3)C2)nc2c(OC(F)F)cc(C(=O)O)cc21 (centres unmarked) = 50 to 85%
Cn1c(CN2CCC(c3cccc(OCc4ccc(Cl)cc4F)n3)CC2)nc2c(C#N)cc(C(=O)O)cc21 = > 85%
Cn1c(CN2CCC(c3cccc(OCc4ccc(Cl)cc4F)n3)CC2)nc2c(OC(F)F)cc(-c3cc(O)no3)cc21 = 50 to 85%
Cn1c(CN2CCC(c3cccc4c3O[C@H](c3ccc(C#N)cc3F)CO4)CC2)nc2c(OCCF)cc(C(=O)O)cc21 = > 85%
Cn1c(N(C)[C@H]2CC[C@@H](c3cccc(OCc4ccc(C#N)cc4F)n3)CC2)nc2c(OC(F)F)cc(C(=O)O)cc21 = > 85%

###

molecular target: human GLP-1R receptor (Homo sapiens, UniProt P43220); construct: expressed in transfected cells; test: GLP-1R low expression cell assay (cAMP TR-FRET, CHO-K1_hGLP-1Rlow_clone10 cells); assay type: cell-based; conditions: maximum activation relative to control GLP-1 peptide agonist
Sequence (P43220 24-463): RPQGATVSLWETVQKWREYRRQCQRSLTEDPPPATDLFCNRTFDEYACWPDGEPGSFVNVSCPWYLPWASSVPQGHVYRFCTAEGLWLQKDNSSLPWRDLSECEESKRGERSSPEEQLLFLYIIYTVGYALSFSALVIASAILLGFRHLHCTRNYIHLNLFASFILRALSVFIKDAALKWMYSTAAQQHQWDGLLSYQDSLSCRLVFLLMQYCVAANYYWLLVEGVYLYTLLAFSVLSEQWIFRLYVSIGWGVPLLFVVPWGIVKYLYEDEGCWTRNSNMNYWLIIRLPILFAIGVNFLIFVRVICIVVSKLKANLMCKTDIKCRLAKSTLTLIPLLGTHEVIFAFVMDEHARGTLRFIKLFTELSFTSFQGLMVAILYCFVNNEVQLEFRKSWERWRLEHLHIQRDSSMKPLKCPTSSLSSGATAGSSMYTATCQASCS
Emax values for the compounds below.
testReadout: Emax

Cn1c(CN2CCC(c3cccc(OCc4ccc(Cl)cc4F)n3)CC2)nc2c(OC3CC3)cc(C(=O)O)cc21 [Compound 215] = > 85%
[2H]C([2H])(C)Oc1cc(C(=O)O)cc2c1nc(CN1CCC(c3cccc(OC([2H])([2H])c4ccc(C#N)cc4F)n3)CC1)n2C [Compound 285] = > 85%
COc1cc(C(=O)O)cc2c1nc(CN1CCC(c3cccc(OCc4ccc(C#N)cc4F)n3)CC1)n2C(F)F [Compound 147] = > 85%
COc1cc(C(=O)O)cc2c1nc(CN1CCC(c3cccc(OCc4ccc(C#N)cc4F)n3)CC1)n2C [Compound 308] = > 85%

###

pEC50 values for the compounds below.
molecular target: human GLP-1R receptor (Homo sapiens); assay: GLP-1R low expression cell assay (cAMP TR-FRET, CHO-K1_hGLP-1Rlow_clone10 cells); conditions: cAMP TR-FRET, 30 min at 25° C.
pEC50: −log10 of the molar value.
testReadout: pEC50

COc1ccc(COc2cccc(C3CCN(Cc4nc5c(OC(F)F)cc(C(=O)O)cc5n4C)CC3)n2)c(F)c1 = 7.00 to 8.00
Cn1c(CN2CCC(c3cccc(OCc4ccc(C5CC5)cc4F)n3)CC2)nc2c(OC(F)F)cc(C(=O)O)cc21 = 7.00 to 8.00
Cn1c(CN2CCC(c3cccnc3OCc3ccc(Cl)cc3F)CC2)nc2c(OC(F)F)cc(C(=O)O)cc21 = 7.00 to 8.00
CN1C(=O)[C@@H](c2ccc(Cl)cc2F)Oc2c(C3CCN(Cc4nc5c(OC(F)F)cc(C(=O)O)cc5n4C)CC3)cccc21 = < 6.00
COc1cc(C(=O)O)cc2c1nc(CN1CCC(c3cccc(OCc4ccc(Cl)cc4F)n3)CC1)n2CF = 7.00 to 8.00
COc1cc(F)ccc1COc1cccc(C2CCN(Cc3nc4c(OC(F)F)cc(C(=O)O)cc4n3C)CC2)n1 = 7.00 to 8.00
COc1cc(C(=O)O)cc2c1nc(CN1CCC(c3cccc4c3O[C@@](C)(c3ccc(Cl)cn3)O4)CC1)n2C(C)C = 6.00 to 7.00
[2H]C([2H])([2H])Oc1cc(C(=O)O)cc2c1nc(CN1CCC(c3cccc(OCc4ccc(Cl)cc4F)n3)CC1)n2C = > 8.00
Cn1c(CN2CCC(c3c(F)cccc3OCc3ccc(C#N)cc3F)CC2)nc2c(OC(F)F)cc(C(=O)O)cc21 = < 6.00
O=C(O)c1ccc2nc(CN3CCC(c4cccc(OCc5ccc(Cl)cc5F)n4)CC3)[nH]c2c1O = < 6.00
Cn1c(CN2CCC(c3ccc(F)c(OCc4ccc(C(N)=O)cc4F)n3)CC2)nc2c(OC(F)F)cc(C(=O)O)cc21 = 6.00 to 7.00
CN(c1nc2c(OC(F)F)cc(C(=O)O)cc2n1C[C@@H]1CCO1)[C@H]1CC[C@@H](c2cccc(OCc3ccc(C#N)cc3F)n2)CC1 = 6.00 to 7.00
Cn1c(Cc2ccc(Oc3cccc(COc4ccc(Cl)cc4F)n3)cc2F)nc2c(OC(F)F)cc(C(=O)O)cc21 = < 6.00
CS(=O)(=O)Nc1cc(C(=O)O)cc2c1nc(CN1CCC(c3cccc(OCc4ccc(C#N)cc4F)n3)CC1)n2C[C@@H]1CCO1 = 7.00 to 8.00
COc1cc(C(F)(F)F)ccc1COc1cccc(C2CCN(Cc3nc4c(OC(F)F)cc(C(=O)O)cc4n3C)CC2)n1 = > 8.00
O=C(O)c1ccc2c(nc(CN3CCC(c4cccc(OCc5ccc(Cl)cc5F)n4)CC3)n2C[C@@H]2CCO2)c1OC(F)F = 6.00 to 7.00
CCOc1cc(C(=O)O)cc2c1nc(CN1CCC(c3cccc4c3O[C@@H](c3ccc(Cl)cc3F)CO4)CC1)n2C = > 8.00
N#Cc1ccc(COc2cccc(C3CCN(Cc4nc5cc(C(=O)O)c6c(c5n4C[C@@H]4CCO4)OCCO6)CC3)n2)c(F)c1 = 7.00 to 8.00
CCOc1cc(C(=O)NS(C)(=O)=O)cc2c1nc(CN1CCC(c3cccc(OCc4ccc(C#N)cc4F)n3)CC1)n2C = 7.00 to 8.00
Cn1c(CN2CCC(c3cccc(OCc4ccc(Cl)cc4F)n3)CC2)nc2c(OCCO)cc(C(=O)O)cc21 = > 8.00
C[C@]1(c2ccc(Cl)cn2)Oc2cccc(C3CCN(Cc4nc5c(O)cc(C(=O)O)cc5n4C[C@@H]4CCO4)CC3)c2O1 = > 8.00
Cn1c(CN2CCC(c3cccc4c3O[C@@H](c3ccc(C#N)cc3F)CO4)CC2)nc2c(OC(F)F)cc(C(=O)O)cc21 = 7.00 to 8.00
COc1cc(C(=O)O)cc2c1nc(CN1CCC(c3cccc4c3OC[C@@H](c3ccc(C#N)cc3F)O4)CC1)n2C = 6.00 to 7.00
